Where do these numbers come from? They come from PubChem BioAssay AID1159580.

- protocol text: chemical genetic growth profiling, strain panel (AID 1159580);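 note: tested at 20 µM; growth read once vehicle control cultures reached saturation at 30 °C; 1 = growth at the plate median or of vehicle wells; lower values mean less growth of the strain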
- experimental setup: S. cerevisiae deletion strains, growth OD, locus YJR075W, strain HOC1
In all, about 5,500 compounds went through this assay and about 2,000 (36%) were called active. About 18% were inconclusive and are not listed. Cut-off read from the data, not from the text of the source: active = normalized growth mostly below about 0.91 (no sharp cut-off); inconclusive = no clear call, values can overlap the other calls; inactive = mostly above about 0.92. The list shows a part of the results.
Allowed answers: 1 for active, -1 for inactive

Here are 6 molecules together with their reported answers.
CCN(CC)CCOCCOC(=O)C1(c2ccccc2)CCCC1: -1
Oc1cccc(O)c1: -1
NNCc1cccc(O)c1: -1
N#CC(c1ccccc1)N1CCCCC1 (centres undefined): -1
N=C(N)N: -1
CCCCCCc1cc2c(C)cc(=O)oc2cc1O: 1

Prompt: Query: recorded result category for CC(C)(C)c1cc(C(=O)NNC(=O)c2cc(C(F)(F)F)cc(C(F)(F)F)c2)n(Cc2ccc(F)cc2)n1 in this test
Completion: -1

Prompt: Look up the recorded call for COC(=O)C/C(N)=C(\C#N)C(=O)OC in this test.
Completion: -1

Prompt: So what was the verdict on Cc1ccc(-c2nn[nH]n2)cc1Cl in this test?
Completion: -1

Prompt: Dear all, I need the recorded test outcome for C/C1=C\CC(C)(C)/C=C/CC2(C)OC2CC1 (centres undefined) , thank you.
Completion: -1

Prompt: What outcome does the record of this test show for O=C(NCO)c1cccnc1 ?
Completion: -1

Prompt: Returns: the outcome recorded for O=C(O)c1cccnc1 in this assay.
Completion: -1

Prompt: Which result was noted for this molecule in the test: CC1=CC(=O)c2ccccc2C1=O
Completion: 1

Prompt: Kindly provide the recorded test outcome for the following molecule: Nc1ccc(S(=O)(=O)NC(=O)c2ccccc2)cc1
Completion: -1
